target or test system: COX-1 (Homo sapiens, UniProt P23219)
Sequence (P23219 24-599): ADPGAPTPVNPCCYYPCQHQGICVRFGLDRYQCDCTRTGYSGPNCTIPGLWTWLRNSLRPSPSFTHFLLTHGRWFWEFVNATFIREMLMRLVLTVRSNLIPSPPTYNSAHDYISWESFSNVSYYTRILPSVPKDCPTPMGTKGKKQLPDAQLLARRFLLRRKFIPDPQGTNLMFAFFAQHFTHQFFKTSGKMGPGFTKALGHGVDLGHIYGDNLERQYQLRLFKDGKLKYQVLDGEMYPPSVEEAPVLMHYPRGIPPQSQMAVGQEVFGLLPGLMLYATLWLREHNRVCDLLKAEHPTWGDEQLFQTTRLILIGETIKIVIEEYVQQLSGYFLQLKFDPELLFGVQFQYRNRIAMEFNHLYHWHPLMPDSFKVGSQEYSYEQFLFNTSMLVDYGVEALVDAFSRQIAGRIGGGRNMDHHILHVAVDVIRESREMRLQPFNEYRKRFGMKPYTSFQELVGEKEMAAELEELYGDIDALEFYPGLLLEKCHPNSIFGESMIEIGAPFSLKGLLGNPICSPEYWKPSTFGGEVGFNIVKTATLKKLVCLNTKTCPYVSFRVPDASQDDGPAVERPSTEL
pIC50: −log10 of the molar value.
measure name: pIC50

CCCCNc1nc(-c2ccc(S(C)(=O)=O)cc2)cc(C(F)F)n1 = < 4.03

Here is another compound to look at.
Task: Quote pIC50 reported for "CCCCNc1nc(CF)cc(-c2ccc(S(C)(=O)=O)cc2)n1" please.
Output: < 5.00

###

For each entry below, report its IC50 value.
Protein target, amino acids: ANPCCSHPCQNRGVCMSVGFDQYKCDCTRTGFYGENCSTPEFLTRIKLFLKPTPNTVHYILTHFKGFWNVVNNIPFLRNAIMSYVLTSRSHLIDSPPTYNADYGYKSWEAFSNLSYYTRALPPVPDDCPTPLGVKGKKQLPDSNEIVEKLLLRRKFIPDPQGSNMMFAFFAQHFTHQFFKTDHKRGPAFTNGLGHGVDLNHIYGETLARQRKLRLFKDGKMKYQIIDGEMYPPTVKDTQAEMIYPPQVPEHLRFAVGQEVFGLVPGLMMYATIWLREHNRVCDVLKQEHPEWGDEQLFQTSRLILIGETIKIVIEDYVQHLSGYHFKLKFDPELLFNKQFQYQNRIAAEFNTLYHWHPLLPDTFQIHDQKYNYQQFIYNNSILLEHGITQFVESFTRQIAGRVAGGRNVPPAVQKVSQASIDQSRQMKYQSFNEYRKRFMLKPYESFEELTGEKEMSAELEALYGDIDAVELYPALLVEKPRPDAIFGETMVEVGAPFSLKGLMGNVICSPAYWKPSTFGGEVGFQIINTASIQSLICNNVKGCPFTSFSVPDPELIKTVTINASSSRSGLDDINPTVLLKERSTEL
Answers are plain numbers, in nM.

CCCCNc1nc(-c2ccc(S(C)(=O)=O)cc2)cc(C(F)F)n1 [Example 2] = 17

Switching to the query record.
Task: Recall and state the measured IC50 for CCCCNc1nc(CF)cc(-c2ccc(S(C)(=O)=O)cc2)n1 [Example 1] .
Output: 761
